In this section, each of the compounds is paired with its reported TGI.
Test system: KM20L2 colon
Experiment: NCI tumour cell line growth inhibition, 48 h
assay_readout: TGI

>>> df
                                   compound    result
0  CCCN(CCC)C(=O)c1c([N+](=O)[O-])cc(C(F)(F)F)cc1[N+](=O)[O-]   53.7 µM
1                      CNC(=S)/N=C(\N)N(C)C  > 100 µM
2  CCOC(=O)C1SC(=Nc2ccc(C)c(C)c2)N=C1C (stereo unspecified)  > 100 µM
3  CC1CC2=C(S(=O)(=O)c3ccccc3)CC(S(=O)(=O)c3ccccc3)(S(=O)(=O)c3ccccc3)CC21 (stereo unspecified)  > 100 µM
4  CCCCNC1CCCCC[C@H]1O (stereo partly specified)  > 100 µM
5       O=C(CCc1nc(=S)[nH][nH]1)Nc1ccccc1Cl  > 100 µM

---

Test system: UACC-257 melanoma
Experiment: NCI tumour cell line growth inhibition, 48 h
In this section, each of the compounds is paired with its reported TGI.
assay_readout: TGI

>>> df
                                   compound  assay_readout    result
0  CC1=C(/C=C/Cl)CC(Cl)C(C)(Cl)C1 (stereo unspecified)            TGI  > 100 µM
1  O=c1c2ccccc2nc(Cc2nc(-c3ccc(Cl)cc3)cs2)n1-c1ccc(Cl)cc1            TGI  > 100 µM
2                     S=c1ssc(N2CCOCC2)c1Cl            TGI  > 100 µM
3    NNC(=O)c1c(SCc2ccccc2)nc2c3ccccc3ccn12            TGI  > 100 µM
4  CCc1nc(N)nc(N)c1-c1ccc(NC)c([N+](=O)[O-])c1            TGI  > 100 µM
5  COC(=O)c1cc2c(cc1Cl)Sc1nnc(Nc3ccc(C)cc3)n1S2(=O)=O            TGI   25.6 µM

---

Test system: HS 578T breast
Assay: NCI tumour cell line growth inhibition, 48 h; in the data active means GI50 below about 0.43 µM; inactive means the rest
Classes used: active, inactive

chemical_structure	tested_system	label_class
O=C(Nc1n[nH]c2cc(-c3ccccc3)ccc12)C1CC1	HS 578T breast	inactive
C/C(=N\Nc1ccc(Cl)cn1)c1ccc2ccccc2n1	HS 578T breast	inactive
COc1cc2ncnc(-n3ncc4cc(NC(=O)Nc5ccccc5)ccc43)c2cc1OC	HS 578T breast	active
COc1ccc(C[N+](C)(C)N)cc1OC	HS 578T breast	inactive
CCNCCNc1cc(-c2ccc(C(F)(F)F)cc2)c(C#N)c2nc3ccccc3n12	HS 578T breast	inactive
CN1CCN(CCCNc2nc3ccc(Oc4ccc(NC(=O)Nc5cc(C(F)(F)F)ccc5F)cc4)cc3[nH]2)CC1	HS 578T breast	inactive
CC/C=C\C[C@H](O)C/C=C1/C(=O)C=C[C@@H]1C/C=C\CCCC(=O)OC	HS 578T breast	inactive
COc1cc2c(cc1OCCCCC(=O)Nc1cc3c4ccccc4ccc3c3ccccc13)N=C[C@@H]1CCCN1C2=O	HS 578T breast	inactive
Cc1cc(C)c(NC(=O)c2sc3nc4c(cc3c2N)C(=O)CCC4)c(C)c1	HS 578T breast	inactive
COc1ccc(C(=O)c2cc(C)c(OC)c(C)c2)c(OC)c1O	HS 578T breast	active
CC1(C)C(=O)/C(=C\c2cccnc2)C[C@]2(C)[C@H]3CC[C@@H]4[C@H]5[C@H](C(=O)/C=C/c6cccnc6)CC[C@]5(C(=O)O)CC[C@@]4(C)[C@]3(C)CC[C@@H]12	HS 578T breast	inactive
